This collection of values is drawn from patent US8722723B2.

System: luciferase (Luc)
Assay Comment: Reporter assay: Hela cells transfected with human RORα1 expression vector and luciferase (Luc) reporter vector; Luc activity corrected with β-Gal activity
Assay type: cell-based, firefly
Design: key: β-Gal-corrected Luc activity; smaller = inhibition, larger = promotion
Settings: test compound 10 μM, human RORα1 expression vector, rev-DR2/TK-Luc reporter, about 1 day, smaller number = inhibitory, larger = promoting
activity of Luc corrected for the transfection efficiency with the β-Gal activity listing for selected compounds.
# print the numeric value only

Below: 3 compounds and their reported activity of Luc corrected for the transfection efficiency with the β-Gal activity.
{"Chemical Structure": "CN(C)c1ccc2c(c1)CN(c1ccc(C3CCCCC3)cc1)C2=O", "Readout Value": 2.6}
{"Chemical Structure": "CCCCCCCc1ccc(N2Cc3cc(N(C)C)ccc3C2=O)cc1", "Readout Value": 1.1}
{"Chemical Structure": "CN(C)c1ccc2c(c1)C(=O)N(c1ccc(CCCC(=O)OC(C)(C)C)cc1)C2", "Readout Value": 0.0}

Tell us which activity of Luc corrected for the transfection efficiency with the β-Gal activity value is on record for CN(C)c1ccc2c(c1)C(=O)N(c1ccc(CCCC(=O)O)cc1)C2
0.0

Look up and state reported activity of Luc corrected for the transfection efficiency with the β-Gal activity for COc1ccc(N2Cc3cccc(N(C)C)c3C2=O)cc1
2.4

Look up and state reported activity of Luc corrected for the transfection efficiency with the β-Gal activity for Cc1ccc([N+](=O)[O-])c(C(=O)Nc2ccc(CCCC(=O)O)cc2)c1
0.8

Please report the measured activity of Luc corrected for the transfection efficiency with the β-Gal activity for CN(C)c1ccc2c(c1)C(=O)N(c1ccc(OCC(=O)O)cc1)C2
0.1

Supply measured activity of Luc corrected for the transfection efficiency with the β-Gal activity of CCCc1ccc(N2Cc3ccc(N(C)C)cc3C2=O)cc1 in your reply.
3.0

Report activity of Luc corrected for the transfection efficiency with the β-Gal activity for O=C(O)CCCc1ccc(N2Cc3ccc(F)cc3C2=O)cc1
0.0

Tell me measured activity of Luc corrected for the transfection efficiency with the β-Gal activity for CCOC(=O)CCCc1ccc(N2Cc3ccc(N(C)C)cc3C2=O)cc1 please.
0.0

Hello, please tell me recorded activity of Luc corrected for the transfection efficiency with the β-Gal activity for this one: O=C(O)C=Cc1ccc(N2Cc3ccccc3C2=O)cc1
0.4

State, in one line, measured activity of Luc corrected for the transfection efficiency with the β-Gal activity of CCOC(=O)C=Cc1ccc(N2Cc3ccccc3C2=O)cc1
0.5

State, in one line, measured activity of Luc corrected for the transfection efficiency with the β-Gal activity of CCCCCCCCc1ccc(N2Cc3ccc(N(C)C)cc3C2=O)cc1
0.4
